SYSTEM: SIRT1 (Homo sapiens)
Sequence (Q96EB6 2-747): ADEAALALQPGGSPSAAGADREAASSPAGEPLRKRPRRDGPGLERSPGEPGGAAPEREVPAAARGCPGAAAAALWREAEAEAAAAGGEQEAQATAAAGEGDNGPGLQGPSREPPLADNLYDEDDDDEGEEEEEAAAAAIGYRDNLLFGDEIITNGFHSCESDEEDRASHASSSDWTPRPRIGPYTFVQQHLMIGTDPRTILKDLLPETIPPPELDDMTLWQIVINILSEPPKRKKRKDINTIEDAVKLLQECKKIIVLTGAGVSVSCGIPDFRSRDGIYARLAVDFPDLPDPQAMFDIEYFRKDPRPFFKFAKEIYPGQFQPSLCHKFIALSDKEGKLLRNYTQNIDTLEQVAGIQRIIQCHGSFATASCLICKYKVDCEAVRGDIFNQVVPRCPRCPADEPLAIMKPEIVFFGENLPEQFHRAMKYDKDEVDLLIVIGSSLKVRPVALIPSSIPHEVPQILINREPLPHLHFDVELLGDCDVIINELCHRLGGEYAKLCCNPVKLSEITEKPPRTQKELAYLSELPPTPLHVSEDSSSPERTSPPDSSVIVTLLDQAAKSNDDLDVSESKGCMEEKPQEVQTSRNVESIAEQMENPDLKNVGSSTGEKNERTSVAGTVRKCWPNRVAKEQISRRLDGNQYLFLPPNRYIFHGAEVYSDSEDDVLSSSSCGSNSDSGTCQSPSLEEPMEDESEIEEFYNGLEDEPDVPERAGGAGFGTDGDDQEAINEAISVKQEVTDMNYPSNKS
Listing of entries alongside the reported pIC50.
# log scale: pIC50 equals minus log10 of the concentration in mol/L

MOLECULE | SYSTEM | pIC50
CC(C(=O)Nc1cccc(/N=C/c2c(O)ccc3ccccc23)c1)c1ccccc1 (centres unmarked) [salermide] | SIRT1 (Homo sapiens) | 5.32

Note: attention shifts to another entry.
pIC50 of CC(C)(C)c1cc(C=C2C(=O)NC(=S)NC2=O)cc(C(C)(C)C)c1O [MHY2256] , assay on SIRT1 (Homo sapiens), is 5.72
